Values from patent US6956046B2

For each entry below, report its melting point value.

Complete the entry with melting point for CN(CC1(O)CCN(CCc2ccccc2C#N)CC1)c1ccc(C(=O)O)cc1.Cl
197.2 to 222.4 °C

Look up and report measured melting point for this entry: CN(CC1(O)CCN(CCc2ccc(C#N)cc2)CC1)c1cccc(C(=O)O)c1
181.9 to 189.1 °C

Dear colleague, please send me the reported melting point for Cl.N#Cc1ccc(CCN2CCC(O)(COc3ccc([N+](=O)[O-])cc3)CC2)cc1 when you can.
219.6 to 221.3 °C

Identify the reported melting point for the following entry. Cl.N#Cc1ccc(CCN2CCC(O)(COc3ccc(C(N)=O)cc3)CC2)cc1
251 to 254.9 °C

Provide melting point value for the following compound: CN(CC1(O)CCN(CCc2cccc(C#N)c2)CC1)c1ccc(C(=O)O)cc1.Cl
166.8 to 176.4 °C

Report melting point for CN(CC1(O)CCN(CCc2ccc(C#N)cc2)CC1)c1ccccc1C(=O)O.Cl
195.3 to 200.6 °C

State its melting point: CN(CC1(O)CCN(CCc2ccc(C#N)cc2)CC1)c1cccc(C(=O)O)c1.Cl
125.5 to 129.7 °C

Identify melting point associated with the compound CN(CC1(O)CCN(CCc2ccc(S(C)(=O)=O)cc2)CC1)c1ccc(C(=O)O)cc1.Cl
246.5 to 249.6 °C

// Input: N#Cc1ccc(CCN2CCC(O)(COc3ccc(C(N)=O)cc3)CC2)cc1 . Output its melting point only.
192.1 to 193.2 °C

====

QUANTITY_NAME: melting point

Check the records and state melting point for CN(CC1(O)CCN(CCc2ccc(C#N)cc2)CC1)c1ccc([N+](=O)[O-])cc1.Cl
169.8 to 173.6 °C

Retrieve melting point measured for COC(=O)c1ccc(OCC2(O)CCN(CCc3ccc(C#N)cc3)CC2)cc1.Cl and print it.
183.7 to 189.7 °C

Identify measured melting point associated with CN(CC1(O)CCN(CCc2ccc(C#N)cc2)CC1)c1ccccc1C(=O)O [Example 19]
106.5 to 116.2 °C

Please report melting point for the following compound: Cl.N#Cc1ccc(CCN2CCC(O)(COc3ccc(O)cc3)CC2)cc1
253 to 255.6 °C

For the compound CN(CC1(O)CCN(CCc2ccc(C#N)cc2)CC1)c1ccc([N+](=O)[O-])cc1 [Example 16] , report melting point.
98.3 to 108.1 °C

Tell me its melting point given Cl.N#Cc1ccc(CCN2CCC(O)(CNc3ccc(C(=O)O)cc3)CC2)cc1 as the entry.
247.7 to 253.2 °C

Supply melting point value. Item: N#Cc1ccc(CCN2CCC(O)(COc3ccc([N+](=O)[O-])cc3)CC2)cc1 [Example 6]
134.7 to 156.7 °C

Input CN(CC1(O)CCN(CCc2ccccc2)CC1)c1ccc(C(=O)O)cc1.Cl , output reported melting point.
242.5 to 245 °C

Supply reported melting point belonging to this compound: CN(CC1(O)CCN(CCc2ccc(C#N)cc2)CC1)c1ccc(-c2nnn[nH]2)cc1 [Example 17]
159.7 to 171.8 °C
